Please respond with reported pIC50 for every item in the list.
// pIC50 here means minus log10 of the molar concentration (mol/L)

Enquiry: Return reported pIC50 for target or system UniProtKB O42275, item COc1cc2[nH]c3c(O)cccc3c(=O)c2c(O)c1CC=C(C)C .
Sequence (O42275 24-633): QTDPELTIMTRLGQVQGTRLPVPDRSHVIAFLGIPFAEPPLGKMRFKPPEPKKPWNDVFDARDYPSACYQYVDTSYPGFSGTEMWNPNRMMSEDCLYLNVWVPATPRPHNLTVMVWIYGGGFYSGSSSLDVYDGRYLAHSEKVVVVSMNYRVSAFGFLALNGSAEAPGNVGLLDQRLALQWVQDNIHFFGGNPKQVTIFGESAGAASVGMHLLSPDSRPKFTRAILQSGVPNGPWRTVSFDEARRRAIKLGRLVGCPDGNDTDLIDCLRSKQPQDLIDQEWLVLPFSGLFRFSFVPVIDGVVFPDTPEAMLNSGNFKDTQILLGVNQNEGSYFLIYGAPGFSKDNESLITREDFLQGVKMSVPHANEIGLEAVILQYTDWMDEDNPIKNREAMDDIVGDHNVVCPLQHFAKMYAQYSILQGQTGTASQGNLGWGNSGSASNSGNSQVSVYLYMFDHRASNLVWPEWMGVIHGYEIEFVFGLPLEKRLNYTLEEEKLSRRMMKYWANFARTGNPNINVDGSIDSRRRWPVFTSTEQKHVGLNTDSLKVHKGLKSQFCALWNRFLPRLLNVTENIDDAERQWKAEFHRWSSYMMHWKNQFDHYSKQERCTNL
Return: 4.29

Enquiry: Please indicate recorded pIC50 of CC(C)=CCc1c(O)c(CC=C(C)C)c2[nH]c3c(O)cccc3c(=O)c2c1O measured with UniProtKB O42275.
Return: 4.23

Enquiry: Fill: pIC50 (UniProtKB O42275) for this compound CC(C)=CCc1c(O)c(CC=C(C)C)c2c(c1O)c(=O)c1cccc(O)c1n2C
Return: 4.31
